The reader will find reported Ki values listed item by item below.
Target: UniProt P23977
Sequence (P23977 whole entry): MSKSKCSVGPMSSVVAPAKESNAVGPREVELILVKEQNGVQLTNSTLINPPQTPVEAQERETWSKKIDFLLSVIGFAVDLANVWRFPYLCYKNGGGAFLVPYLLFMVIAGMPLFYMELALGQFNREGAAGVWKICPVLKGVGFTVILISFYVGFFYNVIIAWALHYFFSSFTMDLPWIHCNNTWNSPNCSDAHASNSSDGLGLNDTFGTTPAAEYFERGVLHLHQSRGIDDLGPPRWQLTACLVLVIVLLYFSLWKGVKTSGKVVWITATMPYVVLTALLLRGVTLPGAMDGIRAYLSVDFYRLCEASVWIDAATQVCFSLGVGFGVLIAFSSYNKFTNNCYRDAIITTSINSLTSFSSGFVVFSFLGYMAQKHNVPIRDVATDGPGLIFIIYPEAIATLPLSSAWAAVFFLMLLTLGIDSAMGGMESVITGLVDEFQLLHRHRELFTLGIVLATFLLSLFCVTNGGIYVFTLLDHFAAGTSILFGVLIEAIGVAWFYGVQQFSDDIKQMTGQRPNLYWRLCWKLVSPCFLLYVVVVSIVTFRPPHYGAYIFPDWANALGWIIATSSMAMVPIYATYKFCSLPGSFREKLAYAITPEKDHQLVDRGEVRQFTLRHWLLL
Only the number, expressed in µM, is required.

* c1ccc(-c2nc(NC(c3ccccc3)c3ccccc3)c3ccccc3n2)cc1 | 0.53

Q: Please state recorded Ki (tested on UniProt P23977) of CN1C2CCC1CC(Oc1nc(-c3ccccc3)nc3ccccc13)C2 (centres undefined)
Result: 5.1
